Molecular target: hemagglutinin of H5N1 clade 1 strain VN/1194.04 (influenza A virus VN/1194.04 (H5N1))
Assay: cell-based or functional assay
READOUT NAME: log10 of IC50, neutralisation of retroviral pseudotypes (log10 of the value in µg/mL)

| BINDER | ENDPOINT VALUE |
| --- | --- |
| FLA5.10 (antibody, V domains shown) VH: QVQLVQSGAEVKEPGSAMKVSCKASGGTFSSDAFCWVRQAPGRGLEWMGGIIPVFQTANYGPNFQGRVTISADVYTTTLYLELSGLTSEDTAVYFCARSGDGYNYYFPLWGQGTLVTVSS VL: DIQMTQSPSTLSGSVGDRVTITCRASQNIGPWLAWYQQESGKAPKLLISRASILESGVPSRFSGTGTGTEFTLTISSLQPDDFATYYCQHYNAYWGTFGQGTKVEIN | -1.59 |
| FLD20.19 (antibody, V domains shown) VH: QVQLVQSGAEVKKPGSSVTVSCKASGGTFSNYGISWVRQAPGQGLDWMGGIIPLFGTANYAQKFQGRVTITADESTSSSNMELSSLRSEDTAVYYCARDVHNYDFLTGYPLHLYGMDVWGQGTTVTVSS VL: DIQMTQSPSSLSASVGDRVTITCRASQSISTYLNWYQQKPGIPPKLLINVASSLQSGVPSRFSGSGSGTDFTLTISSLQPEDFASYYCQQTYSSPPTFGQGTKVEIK | -1.89 |
| FLA3.14 (antibody, V domains shown) VH: EVQLVQSGAEVKKPGESLKISCQASGYSFTSRWIGWVRQMPGKGLEWVGFIYPSDSDVRYSPSFRGQVTISADKSISTAYLQWSSLKASDTAMYFCARLGGNKDYGDYLWYFDLWGRGALVTVSS VL: EIVMTQSPDTLSVSPGERATLSCRASQSVNRRLAWYQQKPGQAPRLLIHDASTRATGIPARFSGSGSGTEFTLTISSLQSEDFAVYYCQQYDNWLSFGQGTRLEIK | -1.07 |
| FLD93 (antibody, V domains shown) VH: WWQLVQSGAEVKKPGSSVKVSCKASGGTFSSYDISWVRQAPGQGLEWMGGIIPIYGTANYAQKFQGRVTITADESTSTAYMELSSLRSEDTAVYYCARAGGDSSGYYGALGRFFQHWGQGTLVTVSS VL: VIWMTQSPSLLSASTGDRVTISCRMSQGISSYLAWYQQKPGKAPELLIHTAYTLKSGVPSRFSGSGSGKDFTLTISGLQSEDFATYYCQQYYSFPYTFGQGTKVEIK | -1.66 |
| FLD122 (antibody, V domains shown) VH: QFQLVQSGPEVKKPGTSVKVSCKASGYTSTTYGISWVRQVPGQGLEWMGWINPYNGNPHYGQKFQGRVTLTRDTSTNTAYLEILSLRSDDTAVYYCARDGWGQQLVPYYFDYWGQGTLVTVSS VL: DIVMTQSPLSLPVTPGEPASISCRASQSLLHSNGYNYLDWYLQKPGQSPQLLIQLGSTRASGVPDRFSGSGSGTDFTLEISRVEAEDVGVYYCMQALQLPLAFGQGTRLEIK | -2.22 |
| FLD84 (antibody, V domains shown) VH: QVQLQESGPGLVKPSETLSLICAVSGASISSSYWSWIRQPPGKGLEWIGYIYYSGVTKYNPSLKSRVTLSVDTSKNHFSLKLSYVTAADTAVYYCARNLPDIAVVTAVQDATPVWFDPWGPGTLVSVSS VL: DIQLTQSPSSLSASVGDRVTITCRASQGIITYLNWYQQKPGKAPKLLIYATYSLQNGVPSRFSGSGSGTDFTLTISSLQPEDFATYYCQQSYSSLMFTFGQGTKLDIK | -1.77 |
| FLD129 (antibody, V domains shown) VH: EVQLVESGGGLVQPGRSLRLSCAASGFTFSDFWMSWVRQAPGKGLEWVANIDQDGNERFYADSVKGRFTISRDNAKNSLYLQMTSLRADDTAVYYCARDGREGYFYGSGSFYNLKGLNWGQGTLLTVSS VL: QSVLTQPPSVSAAPGQRVTISCSGTSSNIGKNYVSWYQQLPGAAPKLLIYDNDKRPSGIPDRFSGSKSGTSATLGITGLQTGDEADYYCGTWDSSLSVGMFGGGTRLTVL | -2.92 |
| FLD132 (antibody, V domains shown) VH: EVQLVQSGAELKMPGESLKISCKASGYTFTNYWIGWVRQTPGKGLEWMGIIFPPDSQTSYSPSFQGQVTFSVDNSISVAYIQWSSLKASDTAIYYCARSGIFDWSAPLVEAFDIWGQGTVVTVSS VL: DIQLTQSPSFLSASVGDGVTITCRASQDIYIYLAWYQQKPGKAPKLLIYAASTLQGGVPSRFSGSGSGTEFTLTINNLQPEDFATYFCQQLNGYPLTFGGGTKVEIK | -2.80 |
| FLD127 (antibody, V domains shown) VH: QVQLVESGGGVVQPGRSLRLSCAASGFTFSSYGMHWVRQAPGKGLEWVAVIWYDGDNKYYGDSVKGRFTISRDNSKNTLFLQMNSLRAEDTAVYYCAKDTADHGDYVDLGFFDAWGQGTLVTVSS VL: DIQMTQSPSSVSASVGDRVTITCRASQDVSTWLAWYQLKPGKAPKLLIYAASSLQSGVPSRFSGSGSGTDFTLTVSSLQPEDFATYYCQQANSFPFTFGPGTKVDIK | -1.72 |

Data provenance is patent US20100278834A1.
